Source of measurements: paper PMC8424372

# Format: in vivo, human
# Measurement Context: male, human, plasma, po, 9.6 g
Measurement Name: Tmax (h)

These solved cases illustrate the format of a correct answer.
compound="CC1(C)[C@@H](O[C@H]2O[C@H](C(=O)O)[C@@H](O)[C@H](O)[C@H]2O[C@@H]2O[C@H](C(=O)O)[C@@H](O)[C@H](O)[C@H]2O)CC[C@]2(C)[C@H]3C(=O)C=C4[C@@H]5C[C@@](C)(C(=O)O)CC[C@]5(C)CC[C@@]4(C)[C@]3(C)CC[C@@H]12 [Glycyrrhizin, glycyrrhizin]" observed=8.04
compound="CC1(C)[C@@H](O)CC[C@]2(C)[C@H]3C(=O)C=C4[C@@H]5C[C@@](C)(C(=O)O)CC[C@]5(C)CC[C@@]4(C)[C@]3(C)CC[C@@H]12 [18-beta-glycyrrhetinic acid]" observed=6.42
compound="O=c1ccc2cc3ccoc3c(O)c2o1 [Xanthotoxol, xanthotoxol]" observed=4.48

I: CC1(C)O[C@H]1COc1c2ccoc2cc2oc(=O)ccc12 [Oxypeucedanin, oxypeucedanin]
II: C=C1CCC[C@]2(C)C[C@]3(O)OC(=O)C(C)=C3C[C@@H]12 [Atractylenolide III, atractylenolide III]
III: O=c1cc(-c2ccccc2)oc2cc(O)c(O)c(O)c12 [Baicalein, baicalein]
Q. Arrange items by their Tmax values in increasing order. As an answer, provide the labels arranged in the order called for.
A. III, II, I
(III: 0.78 h, II: 4.33 h, I: 8.25 h)
